test system: Pseudomonas aeruginosa; assay: Antimicrobial activity against Pseudomonas aeruginosa MTCC 741 assessed as growth inhibition after 24 hr by agar streak dilution technique; assay type: functional; settings: MTCC 741, 24 h
PROPERTY LABEL: MIC (µg/mL)
The figure you give is taken to be in µg/mL; do not add the unit.

In: Find the recorded MIC belonging to O=C1CSC(c2cc3ccccc3nc2Cl)N1c1ccccc1Cl (centres undefined) and report it.
Out: 25

In: Find the recorded MIC belonging to O=C1C(Cl)C(c2cc3ccccc3nc2Cl)N1c1ccccc1[N+](=O)[O-] (centres undefined) and report it.
Out: 62.5

In: Find the recorded MIC belonging to O=C1CSC(c2cc3ccccc3nc2Cl)N1c1cccc([N+](=O)[O-])c1 (centres undefined) and report it.
Out: 12.5

In: Find the recorded MIC belonging to Cc1cccc(N2C(=O)C(Cl)C2c2cc3ccccc3nc2Cl)c1 (centres undefined) and report it.
Out: 100

In: Find the recorded MIC belonging to O=C1C(Cl)C(c2cc3ccccc3nc2Cl)N1c1ccc([N+](=O)[O-])cc1 (centres undefined) and report it.
Out: 12.5

In: Find the recorded MIC belonging to Cc1cnc(N2C(=O)C(Cl)C2c2cc3ccccc3nc2Cl)s1 (centres undefined) and report it.
Out: 50

In: Find the recorded MIC belonging to O=C1CSC(c2cc3ccccc3nc2Cl)N1c1ccc(Cl)cc1 (centres undefined) and report it.
Out: 25

In: Find the recorded MIC belonging to Cc1ccc(N2C(=O)CSC2c2cc3ccccc3nc2Cl)cc1 (centres undefined) and report it.
Out: 62.5

In: Find the recorded MIC belonging to O=C1CSC(c2cc3ccccc3nc2Cl)N1c1ccc(F)cc1 (centres undefined) and report it.
Out: 25

In: Find the recorded MIC belonging to O=C1CSC(c2cc3ccccc3nc2Cl)N1c1ccccc1[N+](=O)[O-] (centres undefined) and report it.
Out: 12.5

In: Find the recorded MIC belonging to O=C1C(Cl)C(c2cc3ccccc3nc2Cl)N1c1cccc([N+](=O)[O-])c1 (centres undefined) and report it.
Out: 50

In: Find the recorded MIC belonging to O=C1C(Cl)C(c2cc3ccccc3nc2Cl)N1c1ccc(Cl)cc1 (centres undefined) and report it.
Out: 25

In: Find the recorded MIC belonging to Cc1ccc(N2C(=O)C(Cl)C2c2cc3ccccc3nc2Cl)cc1 (centres undefined) and report it.
Out: 100
